target: UniProtKB O42275
Sequence (O42275 24-633): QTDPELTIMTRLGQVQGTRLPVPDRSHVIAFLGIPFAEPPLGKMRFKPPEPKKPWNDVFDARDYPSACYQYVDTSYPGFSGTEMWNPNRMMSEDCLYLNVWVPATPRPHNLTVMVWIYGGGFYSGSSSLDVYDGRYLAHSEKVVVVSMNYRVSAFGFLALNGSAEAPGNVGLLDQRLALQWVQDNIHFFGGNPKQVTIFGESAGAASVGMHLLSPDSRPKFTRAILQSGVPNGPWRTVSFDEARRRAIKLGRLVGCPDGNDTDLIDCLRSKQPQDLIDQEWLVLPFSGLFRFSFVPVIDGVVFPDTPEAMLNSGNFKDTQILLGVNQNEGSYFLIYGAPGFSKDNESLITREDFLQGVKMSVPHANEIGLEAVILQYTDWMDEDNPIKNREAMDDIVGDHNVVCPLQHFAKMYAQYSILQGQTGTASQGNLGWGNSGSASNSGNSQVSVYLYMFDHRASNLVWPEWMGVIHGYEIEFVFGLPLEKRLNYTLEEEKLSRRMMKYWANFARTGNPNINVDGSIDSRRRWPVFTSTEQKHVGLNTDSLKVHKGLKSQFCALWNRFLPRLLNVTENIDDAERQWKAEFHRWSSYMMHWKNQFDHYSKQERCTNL
pIC50: −log10 of the molar value.
assay-readout: pIC50

• CCC(C=O)C1CC(=O)N(c2ccccc2)C1=O (stereo not shown) = 3.37

###

target: UniProtKB P81908
Sequence (P81908 whole entry): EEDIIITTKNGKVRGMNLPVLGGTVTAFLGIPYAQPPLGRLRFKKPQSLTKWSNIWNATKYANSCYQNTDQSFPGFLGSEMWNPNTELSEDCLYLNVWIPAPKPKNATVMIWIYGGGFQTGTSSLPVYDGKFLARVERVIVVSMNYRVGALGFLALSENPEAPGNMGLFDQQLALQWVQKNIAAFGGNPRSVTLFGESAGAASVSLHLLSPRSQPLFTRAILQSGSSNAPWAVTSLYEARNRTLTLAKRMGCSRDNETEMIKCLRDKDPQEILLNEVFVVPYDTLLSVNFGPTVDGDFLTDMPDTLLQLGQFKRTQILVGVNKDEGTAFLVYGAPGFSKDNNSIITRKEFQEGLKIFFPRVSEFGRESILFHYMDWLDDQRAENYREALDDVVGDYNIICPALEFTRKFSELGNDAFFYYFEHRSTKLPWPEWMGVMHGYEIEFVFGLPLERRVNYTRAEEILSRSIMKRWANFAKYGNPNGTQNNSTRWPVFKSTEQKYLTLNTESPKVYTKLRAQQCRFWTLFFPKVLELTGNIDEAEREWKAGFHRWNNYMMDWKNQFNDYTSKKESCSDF
pIC50: −log10 of the molar value.
assay-readout: pIC50

- CCC(C=O)C1CC(=O)N(c2ccccc2)C1=O (stereo not shown): 3.27

###

assay: MTT assay, normal cell line; assay type: cell-based; settings: human, WI-38 normal cell line
assay-readout: cytotoxicity at 48 h, 1000 ppm (%)

• CCC(C=O)C1CC(=O)N(c2ccccc2)C1=O (stereo not shown) = 16
